Test system: NRG-mice bearing LNCaP tumors
PROCEDURE DETAILS: Biodistribution (and PET/SPECT imaging) in NRG-mice bearing LNCaP tumors
Type: in vivo
CONDITIONS USED: 3 h p.i., Avg
Protocol: LNCaP cell line was obtained from ATCC (LNCaP clone FGC, CRL-1740). It was established from a metastatic site of left supraclavicular lymph node of human prostatic adenocarcinoma. […] The collected cells number was counted with a Hausser Scientific (Horsham, PA) Hemacytometer. […] PET imaging experiments were conducted using Siemens Inveon micro PET/CT scanner. […] Then, a 10-min static PET imaging or a one hour (30 min×2 frames) of static SPECT scan was performed to determined uptake in tumor and other organs. […]
PROPERTY NAME: Biodistribution: Blood (% ID/g)
Write down the numeric answer in % ID/g and omit the unit.

>  <COMPOUND>
COc1ccc(CCCC(=O)NCC(=O)NC(CCCCNC(=O)CN2CCN(CC(=O)[O-])CCN(CC(=O)[O-])CCN(CC(=O)[O-])CC2)CC(=O)NCC2CCC(C(=O)NC(Cc3c4ccccc4cc4ccccc34)C(=O)NCCCCC(NC(=O)NC(CC(F)C(=O)O)C(=O)O)C(=O)O)CC2)cc1.[177Lu+3] (centres unmarked) [^177Lu-CCZ02019]

>  <UNIT TAG>
% ID/g

>  <ASSAY VALUE>
11.22

$$$$

Now look at this entry.
IN: // Input: COc1ccc(CCCC(=O)NCC(=O)NC(CCCCNC(=O)CN2CCN(CC(=O)[O-])CCN(CC(=O)[O-])CCN(CC(=O)[O-])CC2)CC(=O)NCC2CCC(C(=O)NC(Cc3c4ccccc4cc4ccccc34)C(=O)NCCCCC(NC(=O)NC(CCCC(=O)O)C(=O)O)C(=O)O)CC2)cc1.[68Ga+3] (centres unmarked) [^68Ga-CCZ02015] . Output its Biodistribution: Blood only.
OUT: 10.81
